Experiment: folding stability dG unfold (combined trypsin and chymotrypsin); higher = more stable
Entries and their measured folding stability dG unfold follow.
Use kcal/mol as the unit, but write only the number.

For orientation, consider the following solved cases.
SAGGSAGGSAGGMEIREVEVTFVPPDGTTTTRKVLATSEEEAKAILEEELPPDWEIILRSAGGSAGGSAGGS [r10_145_JUSTAS] :: 0.55
SAGGSASVSVTELSPEERAALEAAGVEVPDDRPRVVETRTVTPAGGAVVTVRVLPEPPLSPEELAASAGGSA [r15_322_JUSTAS] :: -0.127
SAMKVTIEPLEDGSTVITLDDGTEITFSAPGSGAPILAKVTPLPNTGVVRVDIYHPEGGKLLAPLVVPLSAG [r14_975_TrMRF] :: 0.734
SAGGSAGGEEAPPPPVTVTVTIEVEENEDGTLTVRIEVRDEATGETRTITVTMTLEELEELAKASAGGSAGG [r6_995_TrROS_Hall] :: 2.78
SAGGSAGGSMPPEELRKKILEDPNVEVLSIEPPGPEVTLITTKYPRETETPTTETVTEKLPVPLSAGGSAGG [r6_154_JUSTAS] :: -0.568
SAMIEILSIEEFTRPDGKKLYKITLKTPDPEKVLEKLIELGVKPEIDPNNPDILIAVFPYEKIEEILKESAG [r14_777_TrMRF] :: 4.77
SAGGSAGGMRLEIVVEMSEEEARELAEALRRELEERGYRVRVEVRRLPDGRLVVRVEIEPAPEPSAGGSAGG [r6_597_TrROS_Hall] :: 4.63
SAGGSAGGSAGPVVVEVDGKLVIFNPEDGTVTVFEFDKDGKLVEEKEFTVPPEVTLVEEDSAGGSAGGSAGG [r17_385_TrROS_Hall] :: 1.27
SAGGSAGGSAMTTTSTSTYPDSITTTTTTTVDGTYIITTTTFYPATGTTTTTTTTLPPSLTSAGGSAGGSAG [r3_316_JUSTAS] :: 2.41
SAGGSAGGSKPEYVLRVKIYNEETGELVEEIEITVKSKEEALKALKKLLPKDNVKIEVEILPPSAGGSAGGS [r12_578_TrROS_Hall] :: 3.2

query: Form field: reported folding stability dG unfold of SAGGSAGGSAGGSYIIVQFPADEIKEALPPGFEIKSIERSPKNGWVMVAIRYPKDGKPISAGGSAGGSAGGS [r4_435_TrROS]
result: 0.818

query: Repeat with SAGGSAGGSAGGKPGEKKRYRFPAPKFELVSKVKVRVKVLNEDTNELYEKEVEVFVLKLTSAGGSAGGSAGG [r7_64_TrROS_Hall]
result: 2.14

query: Ok, now SAGGSAMPLLIVDKNNNVTLISASSPEELEELLKKYNIKKIEPFPFPDGKALVFIAEYPDGIIYSGSAGGSA [r15_632_TrMRF]
result: 1.52
